- System: PI3K-α (Homo sapiens, UniProt P42336)
- Sequence (P42336 whole entry, species assumed): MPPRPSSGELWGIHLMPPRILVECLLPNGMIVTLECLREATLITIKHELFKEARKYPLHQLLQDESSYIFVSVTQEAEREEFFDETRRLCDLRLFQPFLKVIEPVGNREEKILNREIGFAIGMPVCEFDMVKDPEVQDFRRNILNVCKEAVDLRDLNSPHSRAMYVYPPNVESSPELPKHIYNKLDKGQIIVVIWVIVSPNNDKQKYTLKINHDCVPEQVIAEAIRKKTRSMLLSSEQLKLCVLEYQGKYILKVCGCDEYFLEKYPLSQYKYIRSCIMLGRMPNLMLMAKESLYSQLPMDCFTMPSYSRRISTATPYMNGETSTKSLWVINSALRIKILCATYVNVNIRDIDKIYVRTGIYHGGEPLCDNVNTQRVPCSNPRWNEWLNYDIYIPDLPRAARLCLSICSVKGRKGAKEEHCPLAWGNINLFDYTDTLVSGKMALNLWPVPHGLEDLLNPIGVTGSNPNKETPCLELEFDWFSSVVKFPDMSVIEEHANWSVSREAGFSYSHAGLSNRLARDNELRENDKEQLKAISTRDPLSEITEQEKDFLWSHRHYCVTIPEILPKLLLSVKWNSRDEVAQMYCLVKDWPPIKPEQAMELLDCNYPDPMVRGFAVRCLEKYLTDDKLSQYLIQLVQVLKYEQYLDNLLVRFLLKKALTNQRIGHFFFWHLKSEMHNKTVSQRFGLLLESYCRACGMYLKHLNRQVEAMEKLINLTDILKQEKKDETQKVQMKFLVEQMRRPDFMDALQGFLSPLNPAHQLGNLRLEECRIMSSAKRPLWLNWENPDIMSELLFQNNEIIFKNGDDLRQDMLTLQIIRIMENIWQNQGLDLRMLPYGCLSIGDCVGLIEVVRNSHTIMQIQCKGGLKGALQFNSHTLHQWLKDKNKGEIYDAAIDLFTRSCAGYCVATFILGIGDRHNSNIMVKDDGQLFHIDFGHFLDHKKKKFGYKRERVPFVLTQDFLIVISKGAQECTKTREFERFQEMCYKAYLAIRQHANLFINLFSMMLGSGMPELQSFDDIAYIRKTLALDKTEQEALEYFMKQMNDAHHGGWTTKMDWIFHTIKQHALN
- Sequence (P27986 whole entry partner, species assumed): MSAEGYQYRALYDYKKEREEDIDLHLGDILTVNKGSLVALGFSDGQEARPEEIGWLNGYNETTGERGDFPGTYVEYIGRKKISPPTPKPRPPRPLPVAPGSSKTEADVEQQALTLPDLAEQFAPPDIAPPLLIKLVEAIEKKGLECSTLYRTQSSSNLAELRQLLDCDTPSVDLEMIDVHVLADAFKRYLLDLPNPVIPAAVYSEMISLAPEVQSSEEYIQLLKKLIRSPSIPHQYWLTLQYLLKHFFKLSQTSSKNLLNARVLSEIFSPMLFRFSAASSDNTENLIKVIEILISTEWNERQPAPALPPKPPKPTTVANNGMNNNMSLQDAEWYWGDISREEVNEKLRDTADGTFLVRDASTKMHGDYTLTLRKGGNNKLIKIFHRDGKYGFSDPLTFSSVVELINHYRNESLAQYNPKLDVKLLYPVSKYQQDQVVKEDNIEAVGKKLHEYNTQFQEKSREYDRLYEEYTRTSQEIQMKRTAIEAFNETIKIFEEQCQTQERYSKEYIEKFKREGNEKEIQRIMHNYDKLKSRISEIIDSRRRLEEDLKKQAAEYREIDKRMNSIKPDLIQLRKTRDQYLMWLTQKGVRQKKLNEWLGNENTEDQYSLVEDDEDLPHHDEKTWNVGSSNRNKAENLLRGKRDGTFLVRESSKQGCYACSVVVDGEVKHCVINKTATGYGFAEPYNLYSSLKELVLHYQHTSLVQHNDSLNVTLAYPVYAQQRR
- Assay Details: PI3K-alpha fluorescence polarization assay
- Condition Info: read-out: IC50 PI3Kα
Quantity: log10 of IC50 (log10 of the value in nM)

* CC(C)c1nc(-c2ccc(NC(=O)Nc3ccc(C(=O)Nc4ccncc4)cc3)cc2)nc(N2CCOCC2)n1 [Example 309] | 1.08
* COC(=O)c1ccc(NC(=O)Nc2ccc(-c3nc(N4CCCC4)nc(N4CCOCC4)n3)cc2)cc1 [Example 594] | 2.54
* COC(=O)c1ccc(NC(=O)Nc2ccc(-c3nc(-c4cccs4)nc(N4CCOCC4)n3)cc2)cc1 [Example 560] | 2.43
* O=C(Nc1ccc(-c2nc(C3CCOCC3)nc(N3C4CCC3COC4)n2)cc1)Nc1ccc(N2CCN(C3CC3)CC2)cc1 [Example 436] | 2.87
* CCc1nc(-c2ccc(NC(=O)Nc3ccc(C(=O)N4CCC(c5ccccc5)CC4)cc3)cc2)nc(N2CCOCC2)n1 [Example 320] | 0.52
* CC(C)Nc1nc(-c2ccc(NC(=O)Nc3cccnc3)cc2)nc(N2CC3CCC(C2)O3)n1 [Example 193] | 2.60
* CNC(=O)Nc1ccc(-c2nc(Nc3ccc(N4CCN(C)CC4)cc3)nc(N3CC4CCC(C3)O4)n2)cc1 [Example 317] | 2.33
* O=C(Nc1ccc(-c2nc(NCCC3CCNCC3)nc(N3CC4CCC(C3)O4)n2)cc1)Nc1cccnc1 [Example 170] | 2.58
* CN(C)CCN(C)C(=O)c1ccc(NC(=O)Nc2ccc(-c3nc(N4CCOCC4)nc(N4C5COCC4COC5)n3)cc2)cc1 [Example 768] | 0.08
* COC(=O)c1ccc(NC(=O)Nc2ccc(-c3nc(OC(C)C)nc(N4CCOCC4)n3)cc2)cc1 [Example 95] | 1.68
* CCN1CCN(C(=O)c2ccc(NC(=O)Nc3ccc(-c4nc(N5C6CCC5COC6)nc(N5CCOC[C@@H]5C)n4)cc3)cc2)CC1 [Example 836] | 0.71
* C[C@@H]1COCCN1c1nc(-c2ccc(NC(=O)Nc3cccnc3)cc2)nc(N2C3CCC2COC3)n1 [Example 415] | 2.90
* CC(C)(C)OC(=O)N1CC(CNc2nc(-c3ccc(NC(=O)Nc4ccncc4)cc3)nc(N3CCOCC3)n2)C1 [Example 104] | 1.28
* O=C(Nc1ccccc1)Nc1ccc(-c2nc(N3CCOCC3)nc(N3CCOCC3)n2)cc1 [Example 3] | 0.48
* O=C(Nc1ccc(-c2nc(OCCN3CCCCC3)nc(N3CC4CCC(C3)O4)n2)cc1)Nc1cccnc1 [Example 173] | 3.08
* C[C@H]1COCCN1c1nc(-c2ccc(NC(=O)Nc3ccc(C(=O)NCCN4CCCC4)cc3)cc2)nc(N2CCOCC2)n1 [Example 622] | 0.48
* O=C(Nc1ccc(C(=O)O)cc1)Nc1ccc(-c2nc(C3=CCOCC3)nc(N3CCOCC3)n2)cc1 [Example 227] | 1.36
* CN(C)CCN(C)C(=O)c1ccc(NC(=O)Nc2ccc(-c3nc(N4CCOCC4)nc(N4C5CCC4COC5)n3)cc2)cc1 [Example 698] | 0.43
* CNCCN(C)C(=O)c1ccc(NC(=O)Nc2ccc(-c3nc(N4CCOCC4)nc(N4C5CCC4COC5)n3)cc2)cc1 [Example 701] | 0.30
* O=C(Nc1ccncc1)Nc1ccc(-c2nc(N3CCN(Cc4cccnc4)CC3)nc(N3CC4CCC(C3)O4)n2)cc1 [Example 110] | 2.95
* CC(C)Nc1nc(-c2ccc(NC(=O)Nc3ccc(CN4CCN(C)CC4)cc3)cc2)nc(N2C3CCC2COC3)n1 [Example 379] | 3.68
* CN1CCN(C(=O)c2ccc(NC(=O)Nc3ccc(-c4nc(-c5ccccc5)nc(N5CCOCC5)n4)cc3)cc2)CC1 [Example 543] | 0.54
* CCN1CCN(C(=O)c2ccc(NC(=O)Nc3ccc(-c4nc(N5CCCC5)nc(N5CCOCC5)n4)cc3)cc2)CC1 [Example 606] | 1.08
* O=C(Nc1ccc(CO)cc1)Nc1ccc(-c2nc(OC3CCOCC3)nc(N3CCOCC3)n2)cc1 [Example 62] | 0.30
* O=C(Nc1ccc(-c2nc(N3CCOCC3)nc(N3CCOCC3)n2)cc1)Nc1ccc(C(F)(F)F)cc1 [Example 53] | 1.65
* O=C(Nc1ccc(-c2nc(N3CC4CCC(C3)O4)nc(N3CC4CCC(C3)O4)n2)cc1)NC1CC1 [Example 30] | 3.33
* O=C(Nc1ccncc1)Nc1ccc(-c2nc(N3CCOCC3)nc(N3C[C@@H]4C[C@H]3CO4)n2)cc1 [Example 189] | 1.28
* C[C@@H]1COCCN1c1nc(-c2ccc(NC(=O)Nc3ccc(CN4CCCC4)cc3)cc2)nc(N2CCOC[C@H]2C)n1 [Example 453] | 2.82
* CCN1CCN(C(=O)c2ccc(NC(=O)Nc3ccc(-c4nc(N5CCOCC5)nc(N5C6CCCC5COC6)n4)cc3)cc2)CC1 [Example 804] | 0.78
